- studySystem: GABAA receptor associated protein (GABARAP) (mouse, UniProt Q9DCD6 1-117)
- Sequence (Q9DCD6 whole entry): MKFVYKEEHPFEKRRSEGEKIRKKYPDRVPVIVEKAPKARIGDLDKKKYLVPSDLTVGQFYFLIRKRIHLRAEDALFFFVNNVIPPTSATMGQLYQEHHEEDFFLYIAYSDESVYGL
- testProtocol: ITC
recordedEndpoint: Kd (nM)
Numbers only, in nM.

Request: Given the binder PEDDWTEFSSEEIREARQAAASHAPS (domain or fragment) [ankyrin-G fragment of 26 amino acids (residues 1985-2010)] , what is its reported Kd?
Result: 2.9

The measured values listed here are drawn from paper PMC6542726.
